Data provenance: patent US20230052369A1

biological target: T1, Mouse 4-1BB-Flag, on HEK293-6e cells (Mouse (Mus musculus), UniProt P20334 24-208); assay: CellInsight cell binding, transfected HEK293-6e
T1 construct: also called CL#11063
T1 sequence (P20334 other isoform, or with tags, fused parts or gaps limits assumed): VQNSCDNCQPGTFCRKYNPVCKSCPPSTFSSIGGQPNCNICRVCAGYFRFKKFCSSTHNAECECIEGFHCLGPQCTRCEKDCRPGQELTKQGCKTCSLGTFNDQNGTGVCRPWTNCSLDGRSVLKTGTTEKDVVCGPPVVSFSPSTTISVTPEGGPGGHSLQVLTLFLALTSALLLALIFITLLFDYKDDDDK
Property name: binding result

v20029 (antibody, human IgG1, kappa, L234A L235A, V domains shown, Mouse-human chimera; also called 3E7) VH: QVQLQESGGGLVKPGGSRKLSCAASGFTFSEFGMHWVRQAPDKGLEWVAYISSGSSTIYYADTVKGRFTISRDNAKNTLFLQMTSLRSEDTAMYYCARDWVDYWGQGTALTVSS VL: NIVMTQSPKSMSMSVGERVTLSCKASENVGSYVSWYQQKPEKSPKLLIYGASNRYTGVPDRFTGSGSATDFTLTISSVQAEDLADYHCGQSYSYPLTFGAGTKLELKR :: no binding
v20037 (antibody, human IgG1, kappa, L234A L235A, V domains shown, Mouse-human chimera; also called 6B3) VH: QVQLKESGPGLVAPSQSLSITCTVSGFSLTSYAISWVRQPPGKGLEWLGVIWPGGGTNYNSALKSRLSISKDNSKSQVFLKMNSLQTDDTARYYCARGTGTWYFDVWGAGTTVTVSS VL: DIQMTQTTSSLSASLGDRVTISCSASQGISNYLNWYQQKPDGTVKLLIYYTSSLHSGVPSRFSGSGSGTDYSLTISNLEPEDIATYYCQQYSDLPWTFGGGTKLEIKR :: no binding
v20031 (antibody, human IgG1, kappa, L234A L235A, V domains shown, Mouse-human chimera; also called 4B11; printed as 4B1) VH: QVQLQQSGPELVKPGASVKISCKASGYVFSSYWMNWVKQRPGKGLEWIGRIYPGNGDTNYNGKFKDKATLTADKFSSTAYMQLSNLTSEDSAVYFCASYYELDYWGQGTSVTVSS VL: DVVMTQTPLSLPVSLGDQASISCRSSQSLVHSNGNTYLHWYLQKPGQSPKLLIYKVSNRFFGVPDRFSGSGSGTDFTLKISRVEAEDLGVYFCSQTTYVPLTFGAGTKLELKR :: no binding
